Data provenance: PubChem BioAssay (NCI)

# System: DMS 273 small cell lung
# protocol: NCI tumour cell line growth inhibition, 48 h
readout-kind: TGI

INPUT: Fill in: TGI of CN(CN1C(=O)C2Cc3ccccc3CN2C1=O)c1ccccn1 (stereo unspecified) is ___
OUTPUT: > 100 µM

INPUT: Also need COc1c(C(=O)O)oc2c(OC)cccc12 , thanks.
OUTPUT: > 100 µM

INPUT: Also need C/C(=N\NS(=O)(=O)c1ccccc1)c1ccccc1 , thanks.
OUTPUT: > 100 µM

INPUT: Also need COC1=C(N=[N+]=[N-])C(=O)c2ncccc2C1=O , thanks.
OUTPUT: 25.7 µM

INPUT: Also need O=C(NCCCCCCNC(=O)n1cc(F)c(=O)[nH]c1=O)NCCCOCCOCCCNC(=O)C(O)C(O)C(O)C(O)CO (stereo unspecified) , thanks.
OUTPUT: > 2.5 µM

INPUT: Also need CCCCCCCCCCCCCCCCSCC(COC)COP(=O)([O-])OCC[N+](C)(C)C (stereo unspecified) , thanks.
OUTPUT: 3.9 µM

INPUT: Also need CN(C)C(N)=NC#N , thanks.
OUTPUT: > 100 µM

INPUT: Also need COc1cccc(C(=O)N2CCc3ccccc32)c1OC , thanks.
OUTPUT: > 100 µM

INPUT: Also need O=C(O)CCCCCOc1cccnc1/C=N/NC1=NCCN1 , thanks.
OUTPUT: > 100 µM

INPUT: Also need Cc1cc(O)c2c(c1O)C(=O)C13C(=C2O)C(=O)C2C(O)C1C1C(O)C3C(=O)C3=C(O)c4c(O)cc(C)c(O)c4C(=O)C321 (stereo unspecified) , thanks.
OUTPUT: 0.621 µM

INPUT: Also need O=C1C=C(Br)C(=O)C12CCc1ccccc12 (stereo unspecified) , thanks.
OUTPUT: 37.8 µM

----------
# Test system: LOX IMVI melanoma
readout-kind: GI50

INPUT: Fill in: GI50 of Cc1nc2sc(C(=O)Nc3cccc4ccccc34)c(N)c2cc1C(=O)c1ccccc1 is ___
OUTPUT: 2560 nM

INPUT: Also need O=C(c1ccc2ncc(-c3nc(NC4CC4)ncc3F)n2c1)N1CCOCC1 , thanks.
OUTPUT: 1110 nM

INPUT: Also need Nc1nnc2cc(Cl)ccc2n1 , thanks.
OUTPUT: > 100000 nM

INPUT: Also need CC(=O)O[C@H]1CC[C@@]2(C)C(=CC[C@H]3[C@@H]4C/C(=C\c5cccc(OCCN6CCOCC6)c5)[C@H](OC(C)=O)[C@@]4(C)CC[C@@H]32)C1 , thanks.
OUTPUT: 5940 nM

----------
# Tested on: HCT-116 colon
# protocol: NCI tumour cell line growth inhibition, 48 h
readout-kind: TGI

INPUT: GET /values?readout=TGI&system=HCT-116 colon&item= N#Cc1cnc2cc(OC[C@@H](O)CO)c(NC(=O)CC3CSSC3)cc2c1Nc1ccc(OCc2cccc(F)c2)c(Cl)c1
OUTPUT: 0.2 µM

INPUT: Also need O=C1C=C(Br)C(=O)C12CCc1ccccc12 (stereo unspecified) , thanks.
OUTPUT: 28.7 µM

INPUT: Also need O=S(=O)(NCC1CCC(CNc2ccc(Cl)cc2)CC1)c1ccc(-c2ccccc2)cc1 (stereo unspecified) , thanks.
OUTPUT: > 50 µM

INPUT: Also need c1ccc(C2=Nc3nc4ccccc4n3C(c3ccccc3)C2)cc1 (stereo unspecified) , thanks.
OUTPUT: > 100 µM

INPUT: Also need CC(=O)OCCOCNC(=S)N/N=C(\C)c1cnc2ccccc2n1 , thanks.
OUTPUT: > 100 µM

INPUT: Also need O=c1/c(=C\c2ccccc2)sc2n1C(c1ccccc1)C1(O)CCCCC1N=2 (stereo unspecified) , thanks.
OUTPUT: > 100 µM

INPUT: Also need CCOc1cc2c(NCCCN(CCO)CCO)ncnc2c(OCC)c1OCC , thanks.
OUTPUT: > 100 µM

INPUT: Also need CN1CCCN(C)C1c1cc([N+](=O)[O-])ccc1O , thanks.
OUTPUT: > 100 µM

INPUT: Also need Clc1nc(Cl)c(Cl)c(Cl)n1 , thanks.
OUTPUT: 38.2 µM

INPUT: Also need CC(C)[C@@H]1CC[C@@H](C)C[C@H]1OC(=O)/C=C1/C2C=CC(O2)C1C(=O)O[C@@H]1C[C@H](C)CC[C@H]1C(C)C (stereo partly specified) , thanks.
OUTPUT: > 100 µM

INPUT: Also need Nc1ccc(S(=O)(=O)C23CC4CC(CC(C4)C2)C3)cc1 , thanks.
OUTPUT: > 100 µM

INPUT: Also need Cc1ccc(N=Nc2c(O)ccc3cc(S(=O)(=O)O)ccc23)c(C)c1 , thanks.
OUTPUT: > 100 µM

INPUT: Also need CCOC(=O)c1c(Br)c(-c2ccc(Br)cc2)c(Br)n1C , thanks.
OUTPUT: 34.4 µM

INPUT: Also need CC(=O)N1CCc2c([nH]c3ccc(Br)cc23)C1c1ccccc1 (stereo unspecified) , thanks.
OUTPUT: > 10 µM

INPUT: Also need COc1ccc(-c2cc(/C=C3\C(=O)Nc4ccc(Cl)cc43)[nH]n2)cc1 , thanks.
OUTPUT: 14.1 µM

INPUT: Also need ClC(Cl)c1nc(-c2cccnc2)n2nc(-c3ccccc3)cc2n1 , thanks.
OUTPUT: 6.29 µM

INPUT: Also need C=CCOCn1cnc2c(N)ncnc21 , thanks.
OUTPUT: > 100 µM

INPUT: Also need COc1ccc2cc1Oc1ccc(cc1)C(Sc1ccccc1)CCOC(=O)CC2 (stereo unspecified) , thanks.
OUTPUT: > 100 µM

INPUT: Also need Clc1ccc(Cc2nc3ccc(CCN4CCN(c5ccccc5)CC4)cc3[nH]2)cc1 , thanks.
OUTPUT: 24.6 µM

INPUT: Also need CC1=C[C@H]2c3c(c(O)c(O)c4oc5ccccc5c(=O)c34)[C@H](c3cc(O)c(O)c4oc5ccccc5c(=O)c34)[C@H]2C(C)(C)C1 , thanks.
OUTPUT: 1.75 µM

INPUT: Also need O=c1[nH]c(=O)n(C2OC(CO)C(O)C2O)c2c1CCCC2 (stereo unspecified) , thanks.
OUTPUT: > 100 µM

INPUT: Also need CCOC(=O)C(CO)c1nc2c([nH]c1=O)c(=O)n(C)c(=O)n2C (stereo unspecified) , thanks.
OUTPUT: > 100 µM

INPUT: Also need CN(C)N1C(=O)c2ccccc2NC1c1ccccc1 (stereo unspecified) , thanks.
OUTPUT: > 100 µM

INPUT: Also need Cc1c(C(=O)NCCO)[n+](=O)c2cc(Cl)ccc2n1[O-] , thanks.
OUTPUT: > 100 µM

INPUT: Also need O=C1C(F)=CC(COC(c2ccccc2)(c2ccccc2)c2ccccc2)OC1n1cc(F)c(=O)[nH]c1=O (stereo unspecified) , thanks.
OUTPUT: 10.9 µM

INPUT: Also need C=C1C(=O)O[C@H]2[C@H]1CC/C(COC(=O)NCc1ccc(Cn3c(=O)sn(CCCCl)c3=O)cc1)=C\CC[C@@]1(C)O[C@@H]21 , thanks.
OUTPUT: 1.87 µM

INPUT: Also need CCCCCCCCCCCCCCCCCCNc1ccn(C2OC(COP(=O)(O)OCC3CCC(n4cnc5c(=O)[nH]cnc54)O3)C(O)C2O)c(=O)n1 (stereo unspecified) , thanks.
OUTPUT: > 100 µM

INPUT: Also need CC[C@@]1(O)C(=O)NCc2c1cc1n(c2=O)Cc2cc3c(N)cccc3nc2-1 , thanks.
OUTPUT: 44.2 µM

INPUT: Also need O=C(NCCCCCCNC(=O)n1cc(F)c(=O)[nH]c1=O)NCCCOCCOCCCNC(=O)C(O)C(O)C(O)C(O)CO (stereo unspecified) , thanks.
OUTPUT: > 2.5 µM

INPUT: Also need COc1cc2c(c(OC)c1OC)-c1ccc(SC)c(=O)cc1[C@@H](OC(C)=O)CC2 , thanks.
OUTPUT: > 100 µM

INPUT: Also need COC(=O)C(C)(N=Cc1ccccc1)c1ccccc1 (stereo unspecified) , thanks.
OUTPUT: > 100 µM

INPUT: Also need COc1cccc(NC(=O)CC(=O)N2N=C(N(CCC#N)c3ccccc3C)CC2c2ccccc2)c1 (stereo unspecified) , thanks.
OUTPUT: > 100 µM

INPUT: Also need O=C(CC/C=C(/CS(=O)(=O)c1ccccc1)S(=O)(=O)c1ccccc1)c1ccccc1 , thanks.
OUTPUT: > 100 µM

INPUT: Also need CCOc1cc(NC(C)=O)ccc1C(=O)NN1C(=O)C(Oc2ccccc2)C1c1ccccc1 (stereo unspecified) , thanks.
OUTPUT: > 100 µM

INPUT: Also need CCCCNN , thanks.
OUTPUT: > 100 µM

INPUT: Also need CCOC(=O)N1CCN(c2ccc3c(C)cc(C)nc3n2)CC1 , thanks.
OUTPUT: > 100 µM

INPUT: Also need COc1ccccc1NC(=O)n1nc(N)c2ccccc21 , thanks.
OUTPUT: > 100 µM

INPUT: Also need COc1cc2cc(C(=O)N3C[C@@H](CCl)c4c3cc(N)c3ccccc43)[nH]c2c(OC)c1OC , thanks.
OUTPUT: 0.136 µM

INPUT: Also need Clc1cc2c(c(CSC3=NCN(CC4CC4)CN3)c1)OCOC2 , thanks.
OUTPUT: 42.8 µM

INPUT: Also need COCC(=O)CP(=O)(OC)OC , thanks.
OUTPUT: > 100 µM

INPUT: Also need COc1ccccc1C1SCC(=O)N1c1ccc(-c2ccc(-n3c(-c4ccccc4)nc4ccccc4c3=O)cc2)cc1 (stereo unspecified) , thanks.
OUTPUT: > 100 µM
